# target_entity: T1, human TL1A extracellular domain with N-terminal HIS and FLAG tag (human, UniProt O95150 72-251)
# T1 construct: the whole entry is named; also called TNFSF15
# T1 sequence: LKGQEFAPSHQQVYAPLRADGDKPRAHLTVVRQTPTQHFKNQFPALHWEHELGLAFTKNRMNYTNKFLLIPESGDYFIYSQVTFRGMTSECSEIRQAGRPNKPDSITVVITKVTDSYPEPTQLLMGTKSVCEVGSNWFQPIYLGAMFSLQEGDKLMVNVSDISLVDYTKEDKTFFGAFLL
# protocol_details: SPR Run 7, antibody on Protein A, TL1A 5 ug/mL, timepoint 44
assay_endpoint: TL1A Binding Level (Early) (RU)
Quick reminder: number only, in RU, skip the unit.

These recorded examples may help you get a feel for the data.
[[record]]
binder = "320-531 (antibody, human IgG1, name in Kabat numbering, V domains shown, full-length human IgG1, lambda) VH: QVQLVQSGAEVKKPGASVKVSCKASGYTFTSYDINWVRQAPGQGLEWMGWLNPNSANTGYAQKFQGRVTMTADRSTSTAYMELSSLRSEDTAVYYCAREVPETAAFEYWGQGTLVTVSS VL: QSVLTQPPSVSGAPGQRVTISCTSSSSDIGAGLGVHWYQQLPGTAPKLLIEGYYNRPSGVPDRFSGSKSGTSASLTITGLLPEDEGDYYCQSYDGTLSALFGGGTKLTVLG"
assay_endpoint = "TL1A Binding Level (Early)"
measurement = 66

[[record]]
binder = "320-528 (antibody, human IgG1, name in Kabat numbering, V domains shown, full-length human IgG1, lambda) VH: QVQLVQSGAEVKKPGASVKVSCKASGYTFTSYDINWVRQAPGQGLEWMGWLNPNLGNTGYAQKFQGRVTMTADRSTSTAYMELSSLRSEDTAVYYCAREVPETAAFEYWGQGTLVTVSS VL: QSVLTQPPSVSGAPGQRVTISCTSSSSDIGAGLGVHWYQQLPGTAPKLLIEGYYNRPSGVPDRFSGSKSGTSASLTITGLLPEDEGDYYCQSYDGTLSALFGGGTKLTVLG"
assay_endpoint = "TL1A Binding Level (Early)"
measurement = 121


Now turn to the next binder.
Please report the recorded TL1A Binding Level (Early) for 320-548 (antibody, human IgG1, name in Kabat numbering, V domains shown, full-length human IgG1, lambda) VH: QVQLVQSGAEVKKPGASVKVSCKASGYTFTSYDINWVRQAPGQGLEWMGWLNPNSGNAGYAQKFQGRVTMTADRSTSTAYMELSSLRSEDTAVYYCAREVPETAAFEYWGQGTLVTVSS VL: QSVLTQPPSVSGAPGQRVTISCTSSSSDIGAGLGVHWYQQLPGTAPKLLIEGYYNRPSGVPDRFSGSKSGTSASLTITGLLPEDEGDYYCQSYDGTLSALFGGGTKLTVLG .
74
